# assay-notes: P. falciparum Dd2 growth inhibitors, primary screen, SYBR Green fluorescence, single dose replicates (AID 1159554)
# experimental-parameters: 72 h, at 10 µM
Hit rate of the full screen: of about 94,000 compounds, about 2,100 (2.2%) were called active. Rule as the data show it: active = activity change below about -80%; inconclusive = no clear call, values can overlap the other calls; inactive = above that. The entries come from a sample that favours actives as a whole.
Classes used: active, inactive

INSERT INTO measurements (molecule, label) VALUES
  ('CCC(=O)N1[C@@H](CO)[C@@H](c2ccccc2)C12CN(C(=O)c1cnccn1)C2', 'inactive'),
  ('COc1ccc2c3c(n(C)c2c1)[C@H](CO)N(C(=O)Nc1c(C)noc1C)CC31CN(CC2CC2)C1', 'inactive'),
  ('CCCNC(=O)N1C[C@H]2[C@@H](c3ccccc31)[C@@H](CO)N2C(=O)NCCC', 'inactive'),
  ('O=C(NC[C@H]1CC[C@@H]2[C@@H](CN2S(=O)(=O)c2ccccc2F)O1)C1CCCCC1', 'inactive'),
  ('Cc1ccccc1S(=O)(=O)N1CC(=O)N2[C@H](CO)[C@H](c3ccc(C#CC4CC4)cc3)[C@@H]2C1', 'active'),
  ('CCCNC(=O)[C@@H]1[C@@H](CO)[C@@H]2Cn3c(ccc(-c4ccccc4F)c3=O)[C@H]1N2CC1CC1', 'inactive'),
  ('O=C1CN(S(=O)(=O)c2ccccc2)C[C@H]2[C@H](c3ccc(C#CCc4ccccc4)cc3)[C@@H](CO)N12', 'active'),
  ('CCCNC(=O)N[C@@H]1CC[C@@H](CCn2cc(C3CC3)nn2)O[C@@H]1CO', 'inactive'),
  ('COCC(=O)N1CCC2(CC1)CN(C(=O)Nc1ccccc1F)[C@@H](CO)c1c2c2ccc(OC)cc2n1C', 'inactive'),
  ('O=C(C[C@H]1CC[C@H]2[C@@H](COC[C@@H](O)CN2CC2CCOCC2)O1)NCc1ccc(Cl)cc1', 'inactive');
